- Measured target: ZNF579 (UniProt Q8NAF0)
- Sequence (Q8NAF0 whole entry, looked up): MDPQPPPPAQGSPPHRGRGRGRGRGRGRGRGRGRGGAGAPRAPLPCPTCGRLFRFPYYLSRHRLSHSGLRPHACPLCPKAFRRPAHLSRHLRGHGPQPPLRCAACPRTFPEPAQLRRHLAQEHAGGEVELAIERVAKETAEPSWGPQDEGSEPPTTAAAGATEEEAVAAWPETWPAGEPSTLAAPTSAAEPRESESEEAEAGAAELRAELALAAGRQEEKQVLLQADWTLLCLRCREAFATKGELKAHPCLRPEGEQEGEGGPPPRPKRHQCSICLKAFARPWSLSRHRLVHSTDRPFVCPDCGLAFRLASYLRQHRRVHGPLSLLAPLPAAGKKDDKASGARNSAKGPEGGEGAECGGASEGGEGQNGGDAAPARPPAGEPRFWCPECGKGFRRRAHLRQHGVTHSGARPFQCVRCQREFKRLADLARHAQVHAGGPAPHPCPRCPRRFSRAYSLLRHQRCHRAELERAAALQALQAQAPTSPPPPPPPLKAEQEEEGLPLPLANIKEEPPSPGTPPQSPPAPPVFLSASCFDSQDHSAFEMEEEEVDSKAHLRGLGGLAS
- Procedure summary: log2 fold change, soluble protein after heating vs DMSO (PISA); higher = thermal stabilisation; K562 cells, 10 uM, 30 min; active = over 0.2 and 3.5 SD of the protein, either way, in both replicates (recomputed)
About 7,900 targets were measured; listed, in parts, are those with a hit and a random draw of the rest. About 0.6% of all pairs of compound and target were hits.
Recorded metric: log2 fold change

[[record]]
compound = "c1cn2cc(-c3ccc4cn[nH]c4c3)nc(Nc3ccc(N4CCOCC4)cc3)c2n1"
recorded_metric = "log2 fold change"
reported = -0.14

[[record]]
compound = "Cc1cccc(-c2[nH]c(C(C)(C)C)nc2-c2ccc3nccnc3c2)n1"
recorded_metric = "log2 fold change"
reported = -0.073

[[record]]
compound = "NC(=O)Nc1cc(-c2cccc(F)c2)sc1C(=O)N[C@H]1CCCNC1"
recorded_metric = "log2 fold change"
reported = -0.008

[[record]]
compound = "CNc1nc(-c2ccc3c(N)n[nH]c3c2)cc(N2C[C@@H](C(=O)NC3CCCCC3)CC[C@H]2C)n1"
recorded_metric = "log2 fold change"
reported = 0.089

[[record]]
compound = "Cc1cn(-c2cc(NC(=O)c3ccc(C)c(Nc4nccc(-c5cccnc5)n4)c3)cc(C(F)(F)F)c2)cn1"
recorded_metric = "log2 fold change"
reported = 0.105

[[record]]
compound = "CS(=O)(=O)c1ccc(-c2cnc(N)c(C(=O)Nc3ccccc3)n2)cc1"
recorded_metric = "log2 fold change"
reported = 0.019

[[record]]
compound = "CN(C)CC(=O)Nc1ccc2[nH]c(=O)c3ccccc3c2c1"
recorded_metric = "log2 fold change"
reported = -0.026

[[record]]
compound = "NC(=O)c1ccc2nc(-c3ccc(Oc4ccc(Cl)cc4)cc3)[nH]c2c1"
recorded_metric = "log2 fold change"
reported = 0.042

[[record]]
compound = "C[C@@H]1COCCN1c1cc(C2(S(C)(=O)=O)CC2)nc(-c2cccc3[nH]ccc23)n1"
recorded_metric = "log2 fold change"
reported = -0.114

[[record]]
compound = "C[C@H](Nc1ncnc2nc[nH]c12)c1cc2cccc(Cl)c2c(=O)n1-c1ccccc1"
recorded_metric = "log2 fold change"
reported = -0.031

[[record]]
compound = "CC(C)(O)CC(=O)NCCn1ccc2ncnc(Nc3ccc(Oc4cccc(C(F)(F)F)c4)c(Cl)c3)c21"
recorded_metric = "log2 fold change"
reported = -0.018

[[record]]
compound = "O=C(Nc1cccc(Nc2ncc(Br)c(NCCc3cnc[nH]3)n2)c1)N1CCCC1"
recorded_metric = "log2 fold change"
reported = -0.377

[[record]]
compound = "Cc1ncc(-c2ccnc(Nc3ccc(S(C)(=O)=O)cc3)n2)n1C(C)C"
recorded_metric = "log2 fold change"
reported = -0.054

[[record]]
compound = "Cc1nc(Nc2ncc(C(=O)Nc3c(C)cccc3Cl)s2)cc(N2CCN(CCO)CC2)n1"
recorded_metric = "log2 fold change"
reported = -0.148

[[record]]
compound = "Cc1cc(SCc2sc(-c3ccc(C(F)(F)F)cc3)nc2C)ccc1OCC(=O)O"
recorded_metric = "log2 fold change"
reported = -0.009

[[record]]
compound = "Cn1c2cc(S(C)=O)sc2c2cnn(Cc3cccc(N)c3)c(=O)c21 (centres undefined)"
recorded_metric = "log2 fold change"
reported = 0.008

[[record]]
compound = "CS(=O)(=O)N1CCN(Cc2cc3nc(-c4cccc5[nH]ncc45)nc(N4CCOCC4)c3s2)CC1"
recorded_metric = "log2 fold change"
reported = 0.02

[[record]]
compound = "Cc1ccc2c(=O)c3ccccc3n(CCCN)c2c1C"
recorded_metric = "log2 fold change"
reported = -0.168

[[record]]
compound = "Oc1cc(-c2nc(-c3ccccc3)[nH]c2-c2ccncc2)ccc1Cl"
recorded_metric = "log2 fold change"
reported = -0.025

